Value source: patent US20160175384A1

target: T1, human melanocortin 5 receptor (human, UniProt P33032 1-325); assay: competitive binding vs Eu-NDP-alpha-MSH, time-resolved fluorescence, HEK293/hMC5R cells
T1 construct: whole, on cells; also called hMC5R; MC5R
T1 sequence (P33032 whole entry): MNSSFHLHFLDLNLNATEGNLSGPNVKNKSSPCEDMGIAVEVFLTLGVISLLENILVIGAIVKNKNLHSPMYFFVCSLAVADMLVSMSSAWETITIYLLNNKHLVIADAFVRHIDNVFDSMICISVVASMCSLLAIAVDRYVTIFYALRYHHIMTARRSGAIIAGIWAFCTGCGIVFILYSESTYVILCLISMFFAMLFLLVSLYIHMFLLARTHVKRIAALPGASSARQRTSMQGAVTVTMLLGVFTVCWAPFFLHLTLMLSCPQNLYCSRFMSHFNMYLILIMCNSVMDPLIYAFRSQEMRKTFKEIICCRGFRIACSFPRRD
Square brackets hold non-standard residues; d marks the D form. * marks the point of attachment. d2Nal = N[C@H](Cc1ccc2ccccc2c1)C(=O)O; Butanoyl(4-ethynyl) = C#CCCCC(=O)*; hPhe = N[C@@H](CCc1ccccc1)C(=O)O; Nle = CCCC[C@H](N)C(=O)O
ASSAY_METRIC: Ki (nM)

Guide cases for Ki, answers given:
INSERT INTO assay_data (binder, assay_metric, result_number) VALUES
  ('H-K(Butanoyl(4-ethynyl))YV[Nle]GH[d2Nal]R[dF]DRFG-NH2 (SMILES C#CCCCC(=O)NCCCC[C@H](N)C(=O)N[C@@H](Cc1ccc(O)cc1)C(=O)N[C@H](C(=O)N[C@@H](CCCC)C(=O)NCC(=O)N[C@@H](Cc1c[nH]cn1)C(=O)N[C@H](Cc1ccc2ccccc2c1)C(=O)N[C@@H](CCCNC(=N)N)C(=O)N[C@H](Cc1ccccc1)C(=O)N[C@@H](CC(=O)O)C(=O)N[C@@H](CCCNC(=N)N)C(=O)N[C@@H](Cc1ccccc1)C(=O)NCC(N)=O)C(C)C, Synthetic; alkyne analogue of ligand 7; also called compound 8; ligand 8) [H-Lys(hex-5-ynoyl)Tyr-Val-Nle-Gly-His-DNal(2′)-Arg-DPhe-Asp-Arg-Phe-Gly-NH2]', 'Ki', 3.9),
  ('H-YV[Nle]GH[d2Nal]R[dF]DRFG-NH2 (SMILES CCCC[C@H](NC(=O)[C@@H](NC(=O)[C@@H](N)Cc1ccc(O)cc1)C(C)C)C(=O)NCC(=O)N[C@@H](Cc1c[nH]cn1)C(=O)N[C@H](Cc1ccc2ccccc2c1)C(=O)N[C@@H](CCCNC(=N)N)C(=O)N[C@H](Cc1ccccc1)C(=O)N[C@@H](CC(=O)O)C(=O)N[C@@H](CCCNC(=N)N)C(=O)N[C@@H](Cc1ccccc1)C(=O)NCC(N)=O, Synthetic; also called compound 7; ligand 7) [H-Tyr-Val-Nle-Gly-His-DNal(2′)-Arg-DPhe-Asp-Arg-Phe-Gly-NH2]', 'Ki', 0.71);

a = Ac-[hPhe]H[dF]RW-NH2 (Synthetic; also called compound 2) [Ac-Homophenylalanine-His-DPhe-Arg-Trp-NH2]
b = YVLGHXRWDRFG (Nle; DNal(2′); DTrp; C-terminal amide (NH2), Synthetic; also called compound 5; ligand 5) [H-Tyr-Val-Nle-Gly-His-DNal(2′)-Arg-DTrp-Asp-Arg-Phe-Gly-NH2]
Field: entry with larger Ki (options a / b ). Bench note: the answer is the label of the chosen record. a
(a: 58.2 nM, b: 0.76 nM)
